- assayed-system: T1, human Galectin-3 (Gal3), full-length recombinant (human, UniProt P17931 2-250)
- T1 construct: treated here as one molecule; also called hGAL3; hGal3
- T1 sequence (P17931 2-250 limits assumed): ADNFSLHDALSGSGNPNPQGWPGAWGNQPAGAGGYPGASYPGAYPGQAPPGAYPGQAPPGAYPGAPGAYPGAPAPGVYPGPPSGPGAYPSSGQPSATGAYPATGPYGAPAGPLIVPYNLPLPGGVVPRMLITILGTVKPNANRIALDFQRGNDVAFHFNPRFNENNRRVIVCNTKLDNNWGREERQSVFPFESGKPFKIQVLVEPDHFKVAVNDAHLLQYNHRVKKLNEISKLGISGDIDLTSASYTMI
- experiment-notes: blocking ELISA, Gal3 coated, TREM2-His
We begin with a simple list: items and their reported % blocking of Gal3-TREM2 binding.

TB001 (antibody, IgG4, V domains shown, also called IMT001; IMT001-4) VH: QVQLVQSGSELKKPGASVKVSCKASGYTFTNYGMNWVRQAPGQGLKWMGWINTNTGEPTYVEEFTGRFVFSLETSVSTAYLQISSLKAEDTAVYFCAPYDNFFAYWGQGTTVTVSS VL: DIVLTQSPLSLPVTPGEPASISCRSSKSLLYKDGKTYLNWFLQKPGQSPQLLIYLMSTHASGVPDRFSGSGSGTDFTLKISRVEAEDVGVYYCQQLVDYPLTFGGGTKLEIKR	> 90%

Data request: % blocking of Gal3-TREM2 binding lookup needed for 23H9.2E4 (antibody, V domains shown) VH: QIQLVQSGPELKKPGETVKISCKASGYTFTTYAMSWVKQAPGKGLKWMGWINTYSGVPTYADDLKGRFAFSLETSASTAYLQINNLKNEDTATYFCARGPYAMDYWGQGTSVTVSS VL: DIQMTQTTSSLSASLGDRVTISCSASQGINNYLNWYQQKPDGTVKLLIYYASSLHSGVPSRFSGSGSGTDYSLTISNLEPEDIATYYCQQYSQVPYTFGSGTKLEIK , thanks.
Data returned: > 90%
